Target: T1, FZD3 cysteine-rich domain (CRD), MYC-tagged and GPI-anchored on CHO cells (human, UniProt Q9NPG1 24-150, GPI anchor)
T1 construct: domain: cysteine-rich domain (CRD); also called FZD3 CRD; CHO-myc-FZDGPI; not shown: MYC tag and GPI anchor signal
T1 sequence (looked up): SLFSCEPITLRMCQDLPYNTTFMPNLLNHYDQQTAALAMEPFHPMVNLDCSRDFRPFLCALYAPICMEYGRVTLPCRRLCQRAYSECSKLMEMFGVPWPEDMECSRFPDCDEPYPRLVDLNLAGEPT
Assay: flow cytometry, CHO-CRD cells;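 further: flow cytometry of Fab binding to CHO cells overexpressing a Frizzled CRD, with binding defined as median fluorescence over twice that of CHO cells lacking any Frizzled CRD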
parameterMeasured: median fluorescence

INSERT INTO results (binder, valueobserved) VALUES
  ('Fab-2933 (Fab, V domains shown, Fab; also called Fv-2933) VH: EVQLVESGGGLVQPGGSLRLSCAASGFNLYSSYMHWVRQAPGKGLEWVASIYSSYGYTSYADSVKGRFTISADTSKNTAYLQMNSLRAEDTAVYYCARTVRGSKKPYFSGWAMDYWGQGTLVTVSS VL: DIQMTQSPSSLSASVGDRVTITCRASQSVSSAVAWYQQKPGKAPKLLIYSASSLYSGVPSRFSGSRSGTDFTLTISSLQPEDFATYYCQQFWWYASWLFTFGQGTKVEIK', 4.1),
  ('Fab-2903 (Fab, V domains shown, Fab; also called Fv-2903) VH: EVQLVESGGGLVQPGGSLRLSCAASGFNLSYYYIHWVRQAPGKGLEWVASIYPYSSYTSYADSVKGRFTISADTSKNTAYLQMNSLRAEDTAVYYCARGAIDYWGQGTLVTVSS V domain: DIQMTQSPSSLSASVGDRVTITCRASQSVSSAVAWYQQKPGKAPKLLIYSASSLYSGVPSRFSGSRSGTDFTLTISSLQPEDFATYYCQQWGGGSSLFTFG', 4.18),
  ('Fab-2920 (Fab, V domains shown, Fab) VH: EVQLVESGGGLVQPGGSLRLSCAASGFNISYYYIHWVRQAPGKGLEWVASIYPSSGSTSYADSVKGRFTISADTSKNTAYLQMNSLRAEDTAVYYCARGGMDYWGQGTLVTVSS VL: DIQMTQSPSSLSASVGDRVTITCRASQSVSSAVAWYQQKPGKAPKLLIYSASSLYSGVPSRFSGSRSGTDFTLTISSLQPEDFATYYCQQWFAGALITFGQGTKVEIK', 3.75),
  ('Fab-2904 (Fab, V domains shown, Fab; also called Fv-2904) VH: EVQLVESGGGLVQPGGSLRLSCAASGFNIYSYSMHWVRQAPGKGLEWVAYISSSYGYTSYADSVKGRFTISADTSKNTAYLQMNSLRAEDTAVYYCARSWYAWAMDYWGQGTLVTVSS VL: DIQMTQSPSSLSASVGDRVTITCRASQSVSSAVAWYQQKPGKAPKLLIYSASSLYSGVPSRFSGSRSGTDFTLTISSLQPEDFATYYCQQSSYSLITFGQGTKVEIK', 4.14),
  ('Fab-2905 (Fab, V domains shown, Fab; also called Fv-2905) VH: EVQLVESGGGLVQPGGSLRLSCAASGFNLSYYYMHWVRQAPGKGLEWVASIYSSYSYTSYADSVKGRFTISADTSKNTAYLQMNSLRAEDTAVYYCARSGYALDYWGQGTLVTVSS VL: DIQMTQSPSSLSASVGDRVTITCRASQSVSSAVAWYQQKPGKAPKLLIYSASSLYSGVPSRFSGSRSGTDFTLTISSLQPEDFATYYCQQSSWYYGYPFTFGQGTKVEIK', 4.1),
  ('Fab-2901 (Fab, V domains shown, Fab; also called Fv-2901) VH: EVQLVESGGGLVQPGGSLRLSCAASGFNISYSYMHWVRQAPGKGLEWVASIYSYSSYTYYADSVKGRFTISADTSKNTAYLQMNSLRAEDTAVYYCARSWYYWSPSSGMDYWGQGTLVTVSS VL: DIQMTQSPSSLSASVGDRVTITCRASQSVSSAVAWYQQKPGKAPKLLIYSASSLYSGVPSRFSGSRSGTDFTLTISSLQPEDFATYYCQQGGFLITFGQGTKVEIK', 4.1);

These measurements were taken from patent US20210253718A1.
